assay: in vivo; format: in vivo, mice; settings: male, CD-1, mouse, plasma, iv, 10 mg/kg, mice, IV 10 mg/kg, plasma, 30 min; read-out: Plasma concentration C (mean)
ASSAY_ENDPOINT: concentration at 30 min (ng/mL)

INSERT INTO assay_data (compound, assay_value) VALUES
  ('O=C([O-])C1CCC2(CC1)CC(Nc1ncnc3[nH]c4c(F)cccc4c13)C2.[Na+] (stereo not shown)', 12700);

====

assay: in vivo; type: in vivo, mice; conditions: male, CD-1, mouse, CSF, ip, 10 mg/kg, mice, IP 10 mg/kg, CSF, 1440 min, mean; read-out: CSF concentrations of cmpd 7827_0016 in mice following IP (10 mg/kg) administration, C
ASSAY_ENDPOINT: concentration at 1440 min (ng/mL)

INSERT INTO measurements (compound, assay_endpoint, assay_value) VALUES
  ('O=C(O)C1CCC2(CC1)CC(Nc1ncnc3[nH]c4c(F)cccc4c13)C2 (stereo not shown) [Compound 74]', 'concentration at 1440 min', 10.8);

====

experiment: in vivo; assay type: in vivo, mice; conditions: male, CD-1, mouse, plasma, ip, 10 mg/kg, mice, IP 10 mg/kg, plasma, 120 min, mean of 3 animals; read-out: Plasma concentration C (mean)
ASSAY_ENDPOINT: concentration at 120 min (ng/mL)

INSERT INTO measurements (compound, value_unit, assay_value) VALUES
  ('O=C([O-])C1CCC2(CC1)CC(Nc1ncnc3[nH]c4c(F)cccc4c13)C2.[Na+] (stereo not shown)', 'ng/mL', 6380);

====

assay: in vivo; format: in vivo, mice; conditions: male, CD-1, mouse, brain, ip, 10 mg/kg, mice, IP 10 mg/kg, brain, 5 min, individual animals; read-out: Brain concentration, Final
ASSAY_ENDPOINT: concentration at 5 min (ng/g)

INSERT INTO assay_data (molecule, assay_value) VALUES
  ('O=C(O)C1CCC2(CC1)CC(Nc1ncnc3[nH]c4c(F)cccc4c13)C2 (stereo not shown)', 58.9);

====

assay: in vivo; format: in vivo, mice; conditions: male, CD-1, mouse, brain, ip, 10 mg/kg, mice, IP 10 mg/kg, brain, 5 min, individual animals; read-out: Brain concentration, Final (individual sample)
ASSAY_ENDPOINT: concentration at 5 min (ng/g)

INSERT INTO assay_data (compound, assay_endpoint, assay_value) VALUES
  ('CCc1nc2c(C)nc(C)cc2n1-c1ccc(CCNC(=O)NS(=O)(=O)c2ccc(C)cc2)cc1 [Grapiprant, reference compound]', 'concentration at 5 min', 20.4);

====

test: in vivo; format: in vivo, mice; conditions: male, CD-1, mouse, plasma, po, 30 mg/kg, mice, PO 30 mg/kg, plasma, 240 min, single animals; read-out: Plasma concentration, Final (individual mouse)
ASSAY_ENDPOINT: concentration at 240 min

INSERT INTO assay_data (compound, assay_endpoint, assay_value) VALUES
  ('O=C([O-])C1CCC2(CC1)CC(Nc1ncnc3[nH]c4c(F)cccc4c13)C2.[Na+] (stereo not shown)', 'concentration at 240 min', '5.21 µg/mL');

====

experiment: in vivo; format: in vivo, mice; conditions: male, CD-1, mouse, plasma, po, 30 mg/kg, mice, PO 30 mg/kg, plasma, 360 min; read-out: Plasma concentration C (mean)
ASSAY_ENDPOINT: concentration at 360 min

INSERT INTO results (compound, assay_endpoint, assay_value) VALUES
  ('O=C([O-])C1CCC2(CC1)CC(Nc1ncnc3[nH]c4c(F)cccc4c13)C2.[Na+] (stereo not shown)', 'concentration at 360 min', '4510 ng/mL');
